# Tested on: human lung cancer strain NCI-H441
# assay_info: NCI-H441 cell proliferation inhibitory activity (CellTiter-Glo, 4 days)
# Assay type: cell-based
# condition_context: NCI-H441 cells, 4 days, read-out: NCl-H441 IC50
Would you mind telling me the reported IC50 of each entry?
I only need the number, in nM, no unit after it.

The compound identified as CCCC[C@@H]1NC(=O)C[C@@H](C(=O)N(C)C)N(C)C(=O)[C@H](C2CCCC2)N(C)C(=O)C2(CC(C)(C)C2)NC(=O)[C@@H]2C[C@@H](OCC)CN2C(=O)[C@H](CCc2cc(F)c(C(F)(F)F)c(F)c2)NC(=O)CN(C)C(=O)[C@H](Cc2ccc(C(F)(F)F)cc2)N2CC/C=C\C[C@@H](C2=O)N(C)C(=O)CN(C)C(=O)[C@H]([C@@H](C)CC)NC1=O registered its IC50 at 16.4

The compound identified as CCO[C@@H]1C[C@H]2C(=O)OC3(CCC3)C(=O)N(C)[C@@H](C3CCCC3)C(=O)N(C)[C@H](C(=O)N(C)C)CC(=O)N(C)[C@@H]([C@@H](C)OC)C(=O)N[C@@H]([C@@H](C)CC)C(=O)N(C3CC3)CC(=O)N(C)[C@H]3C/C=C\CCN(C3=O)[C@@H](Cc3ccc(C(F)(F)F)cc3)C(=O)N(C)CC(=O)N[C@@H](CCc3ccc(C(F)(F)F)c(OC)c3)C(=O)N2C1 registered its IC50 at 6

The compound identified as CCO[C@@H]1C[C@H]2C(=O)NC3(CC(C)(C)C3)C(=O)N(C)[C@@H](C(CC)CC)C(=O)N(C)[C@H](C(=O)N(C)C)CC(=O)N(C)[C@@H](CC3CC3)C(=O)N[C@@H]([C@@H](C)CC)C(=O)N(C)CC(=O)N(C)[C@H]3C/C=C\CCN(C3=O)[C@@H](CC3CCC(F)(F)CC3)C(=O)N(C)CC(=O)N[C@@H](CCc3ccc(C(F)(F)F)c(Cl)c3)C(=O)N2C1 registered its IC50 at 17.4
